Tested on: Escherichia coli K-12
Experiment: M.I.C. by standard serial dilution method
Assay type: cell-based
Conditions: K12, E. coli K-12, nutrient agar, 37° C, 18 hours, read-out: minimum inhibitory concentration (M.I.C.)
From the text: These particular compounds, that is, 1-n-(α-hydroxy-ω-aminoalkanoyl)-3'-deoxy-5-O-pentofuranosylneamines according to the aforesaid general formula (I) have useful antibacterial activity against a wide variety of bacteria, including gram-negative bacteria and gram-positive bacteria. […]
property: MIC (µg/mL)
Output spec: scalar in µg/mL, unitless text.

As a guide, the following entries are already answered.
entry.smiles: NC[C@H](O)C(=O)N[C@@H]1C[C@H](N)[C@@H](O[C@H]2O[C@H](CN)[C@@H](O)C[C@H]2N)[C@H](O[C@@H]2O[C@H](CO)[C@H](O)[C@H]2O)[C@H]1O
unit.name: µg/mL
recorded.measurement: 0.39
--
entry.smiles: NCC[C@H](O)C(=O)N[C@@H]1C[C@H](N)[C@@H](O[C@H]2O[C@H](CN)[C@@H](O)C[C@H]2N)[C@H](O[C@@H]2O[C@H](CN)[C@H](O)[C@H]2O)[C@H]1O
unit.name: µg/mL
recorded.measurement: 0.2
--
entry.smiles: NCC[C@H](O)C(=O)N[C@@H]1C[C@H](N)[C@@H](O[C@H]2O[C@H](CN)[C@@H](O)C[C@H]2N)[C@H](O[C@@H]2O[C@H](CO)[C@H](O)[C@H]2O)[C@H]1O
unit.name: µg/mL
recorded.measurement: 0.39
--
entry.smiles: NCC[C@H](O)C(=O)N[C@@H]1C[C@H](N)[C@@H](O[C@H]2O[C@H](CN)[C@@H](O)C[C@H]2N)[C@H](O[C@@H]2O[C@H](CO)[C@@H](O)[C@H]2O)[C@H]1O
unit.name: µg/mL
recorded.measurement: 0.2

Turning now to a further molecule:
input: For `NCC[C@H](O)C(=O)N[C@@H]1C[C@H](N)[C@@H](O[C@H]2O[C@H](CN)[C@@H](O)C[C@H]2N)[C@H](O[C@@H]2O[C@@H](CO)[C@H](O)[C@H]2O)[C@H]1O` , what is its reported MIC?
output: 0.39

---

// endpoint MIC / system Escherichia coli K-12 ML 1410

molecule: NCC[C@H](O)C(=O)N[C@@H]1C[C@H](N)[C@@H](O[C@H]2O[C@H](CN)[C@@H](O)C[C@H]2N)[C@H](O[C@@H]2O[C@H](CO)[C@@H](O)[C@H]2O)[C@H]1O
MIC: 0.78 µg/mL
--
molecule: NCC[C@H](O)C(=O)N[C@@H]1C[C@H](N)[C@@H](O[C@H]2O[C@H](CN)[C@@H](O)C[C@H]2N)[C@H](O[C@@H]2O[C@H](CN)[C@H](O)[C@H]2O)[C@H]1O
MIC: 0.78 µg/mL
--
molecule: NC[C@H](O)C(=O)N[C@@H]1C[C@H](N)[C@@H](O[C@H]2O[C@H](CN)[C@@H](O)C[C@H]2N)[C@H](O[C@@H]2O[C@H](CO)[C@H](O)[C@H]2O)[C@H]1O
MIC: 3.12 µg/mL

input: Give recorded MIC with Escherichia coli K-12 ML 1410 for the following molecule: `NCC[C@H](O)C(=O)N[C@@H]1C[C@H](N)[C@@H](O[C@H]2O[C@H](CN)[C@@H](O)C[C@H]2N)[C@H](O[C@@H]2O[C@@H](CO)[C@H](O)[C@H]2O)[C@H]1O`
output: 0.78 µg/mL

input: Give recorded MIC with Escherichia coli K-12 ML 1410 for the following molecule: `NCC[C@H](O)C(=O)N[C@@H]1C[C@H](N)[C@@H](O[C@H]2O[C@H](CN)[C@@H](O)C[C@H]2N)[C@H](O[C@@H]2O[C@H](CO)[C@H](O)[C@H]2O)[C@H]1O`
output: 1.56 µg/mL

input: Give recorded MIC with Escherichia coli K-12 ML 1410 for the following molecule: NCC(O)C(=O)N[C@@H]1C[C@H](N)[C@@H](O[C@H]2O[C@H](CN)[C@@H](O)C[C@H]2N)[C@H](O[C@@H]2O[C@H](CO)[C@H](O)[C@H]2O)[C@H]1O (stereo partly drawn)
output: 3.12 µg/mL
